Target: T1, Cynomolgus Monkey VSIG4-L-His (cynomolgus monkey)
T1 construct: ECD with His tag; also called cyVSIG4-L; cyno VSIG4-L-His
T1 chain: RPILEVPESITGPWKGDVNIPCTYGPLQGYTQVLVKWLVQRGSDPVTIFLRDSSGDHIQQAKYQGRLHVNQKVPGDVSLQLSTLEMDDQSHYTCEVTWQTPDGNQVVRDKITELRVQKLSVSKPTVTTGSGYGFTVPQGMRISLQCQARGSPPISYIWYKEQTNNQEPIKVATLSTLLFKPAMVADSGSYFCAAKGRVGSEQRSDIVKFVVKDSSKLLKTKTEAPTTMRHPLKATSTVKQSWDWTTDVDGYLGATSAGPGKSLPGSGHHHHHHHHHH
Assay: ELISA, IgG 50 nM on coated antigen;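 note: Mouse-human chimeric IgG4 antibodies incubated 1 h on plate-coated VSIG4 proteins, bound IgG detected with HRP-labelled anti-human IgG, irrelevant antibody and protein as specificity controls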
Listed here: items and their measured ELISA OD450.
quantity_kind: ELISA OD450

binder="14D12 mouse/human chimeric IgG4 (S228P) kappa (antibody, V domains shown) VH: QIQLVQSGPELKKPGETVKISCKASGYTFTNYGMNWVKQTPGKGLKWMGLINTYTGEPTYADDFKGRFAFSLETSASTAYLQINNLKNEDMATYFCARERIYGYLHYFDYWGQGTTLTVSS VL: DVVMTQTPASLAVSLGQRATISCKASQSVDYDGDSYMNWYQQKPGQPPKLLIYAASNLESGIPARFSGSGSGTDFTLNIHPVEEEDAATYYCQQSNEDPRTFGGGTKLEIKR" value_observed="4.52 OD450"
binder="15C04 mouse/human chimeric IgG4 (S228P) kappa (antibody, V domains shown) VH: QIQLQESGPSLVRPSQTLSLTCSVTGDSITSGYWNWIRKFPGDKLEYLGYISYSGFTYYNPSLKSRISITRDTSKNQYYLQLNSVTTEDTATYYCASSYYGSSLGFPYWGQGTLVTVSA VL: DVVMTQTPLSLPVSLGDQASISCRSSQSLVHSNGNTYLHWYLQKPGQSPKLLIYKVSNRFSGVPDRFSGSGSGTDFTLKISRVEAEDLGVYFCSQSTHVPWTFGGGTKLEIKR" value_observed="4.53 OD450"
binder="12A12 mouse/human chimeric IgG4 (S228P) kappa (antibody, V domains shown) VH: QVQMKQSGAELAKPGASVKMSCKASGYTFTNYWMHWVKQRPGQGLEWIGYINPSTGYTDYNQNFKDRATLTADKSSSTAYMQLSSLTSEDSAVYYCIRGSDYYGRDYWGQGTTLTVSS VL: DIQMTQTTSSLSASLGDRVTISCRASQDISNYLNWYQQKPDGTLKLLIYYTSRLHSGVPSRFSGSGSGTDYSLTISNLEQEDIATYFCRQGNTLPWTFGGGTKLEIKR" value_observed="4.4 OD450"
